Measured pKa, listed per entry for reference.
# PROTOCOL NOTES: physchem
# CONDITION DETAILS: 100 mM phosphate buffer in a 96 well plate, pH 8

CCOC(=O)c1cc2ccc(O)cc2oc1=O [EHC, 3-ethylcarboxylate-7-hydroxycoumarin, reference compound]    ~6.5

We next turn to a different molecule, shown below.
*Q* # get_value(readout='pKa', item= "CCOC(=O)c1cc2cc(F)c(O)cc2oc1=O" )
*A* ~4.5
